- Measurement Target: Angiotensin II receptor (Rattus norvegicus) (UniProt P29089+P25095+P35351)
- Experiment Summary: In vivo antagonist activity (ANG II like) expressed by blood pressure increase (mHg) produced by […] iv injection of compound in rats
- Type: functional, organism-based
Square brackets hold non-standard residues; d marks the D form. Peptide text beside a SMILES is read from it. Aib = CC(C)(N)C(=O)O; Sar = CNCC(=O)O
The following compounds are listed with their measured ID50 (ng min-1 rat-1) values.
Provide a numeric answer; units are not to be included.

CC[C@H](C)[C@H](NC(=O)C(C)(C)NC(=O)[C@H](Cc1c[nH]cn1)NC(=O)[C@@H](NC(=O)[C@H](Cc1ccc(O)cc1)NC(=O)[C@@H](NC(=O)[C@H](CCCN=C(N)N)NC(=O)CNC)C(C)C)[C@@H](C)CC)C(=O)O (H-[Sar]RVYIH[Aib]I-OH)    60
CNCC(=O)N[C@@H](CCCN=C(N)N)C(=O)N[C@H](C(=O)N[C@@H](Cc1ccc(O)cc1)C(=O)N1CSC(C)(C)[C@@H]1C(=O)N[C@@H](Cc1c[nH]cn1)C(=O)N1CCC[C@H]1C(=O)N[C@H](Cc1ccccc1)C(=O)O)C(C)C    1000
CC[C@H](C)[C@H](NC(=O)[C@@H]1N(C(=O)[C@H](Cc2c[nH]cn2)NC(=O)[C@@H](NC(=O)[C@H](Cc2ccc(O)cc2)NC(=O)[C@@H](NC(=O)[C@H](CCCN=C(N)N)NC(=O)CNC)C(C)C)[C@@H](C)CC)CSC1(C)C)C(=O)O    250

Would you kindly look at the next entry?
Q: Complete the entry with ID50 (ng min-1 rat-1) for CC[C@H](C)[C@H](NC(=O)[C@@H]1CCCN1C(=O)[C@H](Cc1c[nH]cn1)NC(=O)[C@@H]1N(C(=O)[C@H](Cc2ccc(O)cc2)NC(=O)[C@@H](NC(=O)[C@H](CCCN=C(N)N)NC(=O)CNC)C(C)C)CSC1(C)C)C(=O)O
A: 25

----------
- Measurement Target: Angiotensin II receptor (Rattus norvegicus) (UniProt P29089+P25095+P35351)
- Experiment Summary: In vivo agonist activity expressed as percent activity relative to angiotensin II in rat blood pressure assay.
- Assay type: functional, organism-based
Square brackets hold non-standard residues; d marks the D form. Peptide text beside a SMILES is read from it. Ac5c = NC1(C(=O)O)CCCC1; Aib = CC(C)(N)C(=O)O
Readout Label: Activity (%)
Numeric answer only, unit % assumed.

CC[C@H](C)[C@H](NC(=O)[C@H](Cc1ccc(O)cc1)NC(=O)C(C)(C)NC(=O)[C@H](CCCN=C(N)N)NC(=O)[C@@H](N)CC(=O)O)C(=O)N[C@@H](Cc1c[nH]cn1)C(=O)N1CCC[C@H]1C(=O)N[C@@H](Cc1ccccc1)C(=O)O (H-DR[Aib]YIHPF-OH)    1
CC[C@H](C)[C@H](NC(=O)[C@H](Cc1ccc(O)cc1)NC(=O)[C@@H](NC(=O)[C@H](CCCN=C(N)N)NC(=O)CNC)C(C)C)C(=O)N[C@@H](Cc1c[nH]cn1)C(=O)N1CCC[C@H]1C(=O)N[C@@H](Cc1ccccc1)C(=O)O    125
CC(C)[C@H](NC(=O)[C@H](Cc1ccc(O)cc1)NC(=O)C1(NC(=O)[C@H](CCCN=C(N)N)NC(=O)[C@@H](N)CC(=O)O)CCCC1)C(=O)N[C@@H](Cc1c[nH]cn1)C(=O)NC(C)(C)C(=O)N[C@@H](Cc1ccccc1)C(=O)O (H-DR[Ac5c]YVH[Aib]F-OH)    1

Would you kindly look at the next entry?
Q: Report Activity on Angiotensin II receptor (Rattus norvegicus) (UniProt P29089+P25095+P35351) for this entry: CC(C)[C@H](NC(=O)[C@H](Cc1ccc(O)cc1)NC(=O)C1(NC(=O)[C@H](CCCN=C(N)N)NC(=O)[C@@H](N)CC(=O)O)CCCC1)C(=O)N[C@@H](Cc1c[nH]cn1)C(=O)NC1(C(=O)N[C@@H](Cc2ccccc2)C(=O)O)CCCC1 (H-DR[Ac5c]YVH[Ac5c]F-OH)
A: 1.5
